- procedure details: Non-competitve inhibition of alpha-glucosidase (unknown origin) by Dixon-plot analysis
- Parameters: species or system Homo sapiens
measured parameter: pKi
Scale explanation: pKi corresponds to minus log10 of a concentration expressed in moles per litre.

Prompt: Please give the documented pKi of `C[C@H]1C[C@@]23CC[C@H]4[C@@](C)([C@@H](OC(=O)C5CCCCC5)CC[C@@]4(C)C(=O)O)[C@@H]2CC[C@H]1C3`
Completion: 4.71
